Assay: Half life in Wistar rat at 5 mg/kg, po measured upto 72 hrs by HPLC-MS analysis
Format: ADME, organism-based
Conditions: in vivo
metricName: half-life
Hey, just the number and the unit after it is fine.

Query block: Answer with reported half-life of CC(=O)Nc1ccc(Oc2cccc3c(NC(=O)Nc4cccc(C(F)(F)F)c4)cccc23)cc1
Result block: 11.9 h

====

Assay: MRT in Wistar rat at 5 mg/kg, po measured upto 72 hrs by HPLC-MS analysis
Assay type: ADME, organism-based
Settings: in vivo
metricName: MRT (h)
Numeric answer only, unit h assumed.

Query block: Answer with reported MRT of CC(=O)Nc1ccc(Oc2cccc3c(NC(=O)Nc4cccc(C(F)(F)F)c4)cccc23)cc1
Result block: 14.3
